This listing pairs binders with measured EC50.
Molecular target: T1, full length human DPEP-1 displayed on HEK293T / HEK293-6E cells (human, UniProt P16444 17-385)
T1 construct: whole, on cells; GPI-anchored on the cell surface; also called hDPEP-1
T1 sequence (looked up): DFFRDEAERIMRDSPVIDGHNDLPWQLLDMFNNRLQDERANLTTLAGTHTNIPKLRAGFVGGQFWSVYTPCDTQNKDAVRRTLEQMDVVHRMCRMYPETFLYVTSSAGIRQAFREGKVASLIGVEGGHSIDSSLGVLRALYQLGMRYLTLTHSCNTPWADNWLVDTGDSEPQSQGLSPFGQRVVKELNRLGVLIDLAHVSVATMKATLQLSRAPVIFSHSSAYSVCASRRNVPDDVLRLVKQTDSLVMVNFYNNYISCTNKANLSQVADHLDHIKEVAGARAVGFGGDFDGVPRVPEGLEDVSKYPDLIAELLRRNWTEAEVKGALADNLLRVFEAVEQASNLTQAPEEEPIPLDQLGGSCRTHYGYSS
Test: flow cytometry, biotinylated VHH titrated on HEK-293-6E cells overexpressing hDPEP-1
Number in nM, nothing else.

// worked examples, EC50 included
I have this binder here, sdABP03 (VHH with BAP and His6 tags) (VHH, biotin on the Biotinylation Acceptor Peptide in the flow cytometry and immunoprecipitation assays, Monomeric llama VHH with BAP and His6; also called sdAb03) VHH: EVQLVESGGGLVQPGGSLRLSCATSEFTLDYYAIGWFRQAPGKEREGVSCISSSGGTTNYADSVKGRFTISSDNAKNTVSLQMNSLRPEDTAVYYCAAARVSAYYLGNYGCLNAEYGYWGQGTQVTVSS , and I need its recorded EC50.
550

Give its EC50 value. Item: sdABP07 (VHH with BAP and His6 tags) (VHH, biotin on the Biotinylation Acceptor Peptide in the flow cytometry and immunoprecipitation assays, Monomeric llama VHH with BAP and His6; also called sdAb07) VHH: EVQLVESGGGLVEYGGSLRLSCAASESTLDNYAIAWFRQAPGKEREVVSCVGKSGGRSDYADSVKGRFTISRDNAKNTVYLQMNSLKPEDTAVYSCAARRVWFGGCVLGTSQGQYDYWGQGTQVTVSS
15

Quick one: EC50 of sdABP05 (VHH with BAP and His6 tags) (VHH, biotin on the Biotinylation Acceptor Peptide in the flow cytometry and immunoprecipitation assays, Monomeric llama VHH with BAP and His6; also called sdAb05) VHH: EVQLVESGGGLVQPGGSLRLSCAASGFTFSTYAMTWVRKAPGKGFEWISSIDSGGGVTLYADSVKGRFTISKDNAKNTLYLQMNNLKPDDTAVYYCVKNYGSTSLQSRGQGTQVTVSS ?
5.3

Lab note: next binder to report on.
Look up EC50 for this binder: sdABP06 (VHH with BAP and His6 tags) (VHH, biotin on the Biotinylation Acceptor Peptide in the flow cytometry and immunoprecipitation assays, Monomeric llama VHH with BAP and His6; also called sdAb06) VHH: EVQLVDSGGGLVQPGGSLRLSCAASGFTFSNYDMSWVRQGPGKGPEWVSIISYVGGLTRYSDSVKGRFTISRDNAKNTLYLQMNSLNTEDTALYYCARVKSMHPTSTTGEYDYRGRGTQVTVSS
0.96
